test: Tanguay_ZF_120hpf_PIG_legacy: (Legacy) Oregon State University Tanguay Lab 120 Hour Post-fertilization zebrafish Assay for Pigmentation Malformation (AID 2283650);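 also: dechorionated Tropical 5D zebrafish embryos exposed singly from 6 to 120 hpf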
Results filed as inconclusive are left out. Activity calls are given as the source filed them. The calls were made as follows: active = hit-call score of the fitted dose curve at least 0.9, where 1 is the maximum; inconclusive = response in the unintended direction; inactive = score below 0.9.
Hi! Could you answer with just one of these? 1 (active), -1 (inactive)

Enquiry: GET /call?item= C=CC(N)=O returns the recorded outcome of this test.
Return: -1

Enquiry: GET /call?item= CCC(=O)O[C@H]1CC[C@H]2[C@@H]3CCC4=CC(=O)CC[C@]4(C)[C@H]3CC[C@]12C returns the recorded outcome of this test.
Return: -1

Enquiry: GET /call?item= Clc1ccc(C(c2ccccc2Cl)C(Cl)(Cl)Cl)cc1 (stereo unspecified) returns the recorded outcome of this test.
Return: -1

Enquiry: GET /call?item= O=NN(c1ccccc1)c1ccccc1 returns the recorded outcome of this test.
Return: -1

Enquiry: GET /call?item= O=C(NC(=O)c1cc(F)c(F)cc1Cl)Nc1cc(F)ccc1N1CCC(C(=O)O)CC1 returns the recorded outcome of this test.
Return: -1

Enquiry: GET /call?item= Oc1ccc(C(c2ccc(O)cc2)(C(F)(F)F)C(F)(F)F)cc1 returns the recorded outcome of this test.
Return: 1

Enquiry: GET /call?item= O=C(O)C(F)(F)C(F)(F)C(F)(F)C(F)(F)C(F)(F)C(F)(F)C(F)(F)C(F)(F)C(F)(F)F returns the recorded outcome of this test.
Return: -1

Enquiry: GET /call?item= Oc1ccc(Cl)cc1Cl returns the recorded outcome of this test.
Return: -1

Enquiry: GET /call?item= Cc1cc2c3c(c1)C(c1ccccc1)=N[C@@H](NC(=O)c1ccncc1)C(=O)N3CC2 returns the recorded outcome of this test.
Return: -1

Enquiry: GET /call?item= c1cc2ccc3cccc4ccc(c1)c2c34 returns the recorded outcome of this test.
Return: -1

Enquiry: GET /call?item= CCCCCCOC(=O)c1ccccc1C(=O)OCCCCCC returns the recorded outcome of this test.
Return: -1

Enquiry: GET /call?item= Cc1cccc(C)c1N returns the recorded outcome of this test.
Return: -1

Enquiry: GET /call?item= CC1=C2C[C@H]3[C@@H](CC=C4C[C@@H](O)CC[C@@]43C)[C@@H]2CC[C@]12O[C@@H]1C[C@H](C)CN[C@H]1[C@H]2C returns the recorded outcome of this test.
Return: 1

Enquiry: GET /call?item= C=CC(=O)NCNC(=O)C=C returns the recorded outcome of this test.
Return: -1

Enquiry: GET /call?item= NS(=O)(=O)C(F)(F)C(F)(F)C(F)(F)C(F)(F)C(F)(F)C(F)(F)C(F)(F)C(F)(F)F returns the recorded outcome of this test.
Return: -1

Enquiry: GET /call?item= CCCN(CCC)N=O returns the recorded outcome of this test.
Return: -1

Enquiry: GET /call?item= CCCCCCCCOC(=O)c1ccccc1C(=O)OCCCCCCCC returns the recorded outcome of this test.
Return: -1

Enquiry: GET /call?item= Cc1cccc([N+](=O)[O-])c1 returns the recorded outcome of this test.
Return: -1

Enquiry: GET /call?item= CO/C=C(/C(=O)OC)c1ccccc1COc1cccc(C(F)(F)F)n1 returns the recorded outcome of this test.
Return: 1

Enquiry: GET /call?item= Cc1cc(-c2ccc(N)c(C)c2)ccc1N returns the recorded outcome of this test.
Return: -1

Enquiry: GET /call?item= Cc1ccccc1CO[C@@H]1C[C@@]2(C(C)C)CC[C@]1(C)O2 returns the recorded outcome of this test.
Return: -1

Enquiry: GET /call?item= N#Cc1ccc(N(CC(N)=O)CC(F)(F)F)cc1C(F)(F)F returns the recorded outcome of this test.
Return: -1

Enquiry: GET /call?item= CN(C)CCO returns the recorded outcome of this test.
Return: -1

Enquiry: GET /call?item= C[C@]12CCC(=O)C=C1CC[C@@H]1[C@@H]2CC[C@]2(C)C(=O)CC[C@@H]12 returns the recorded outcome of this test.
Return: 1

Enquiry: GET /call?item= CCNc1nc(NC(C)C)nc(SC)n1 returns the recorded outcome of this test.
Return: -1

Enquiry: GET /call?item= CC(C)C(=O)OCC(C)(C)C(OC(=O)C(C)C)C(C)C (stereo unspecified) returns the recorded outcome of this test.
Return: -1

Enquiry: GET /call?item= Clc1ccc(Cl)cc1 returns the recorded outcome of this test.
Return: -1

Enquiry: GET /call?item= CCC(C)(c1ccc(O)cc1)c1ccc(O)cc1 returns the recorded outcome of this test.
Return: 1

Enquiry: GET /call?item= Cc1ccccc1[N+](=O)[O-] returns the recorded outcome of this test.
Return: -1

Enquiry: GET /call?item= CCOCCOC(C)=O returns the recorded outcome of this test.
Return: -1

Enquiry: GET /call?item= O=C(O)C(F)(F)C(F)(F)C(F)(F)C(F)(F)C(F)(F)C(F)(F)C(F)(F)C(F)(F)F returns the recorded outcome of this test.
Return: -1

Enquiry: GET /call?item= CCC(C)c1cc([N+](=O)[O-])cc([N+](=O)[O-])c1O (stereo unspecified) returns the recorded outcome of this test.
Return: -1

Enquiry: GET /call?item= COc1ccc(O)c(C(C)(C)C)c1 returns the recorded outcome of this test.
Return: -1

Enquiry: GET /call?item= CCSC(=O)N(CC)C1CCCCC1 returns the recorded outcome of this test.
Return: -1

Enquiry: GET /call?item= Cc1ccccc1O returns the recorded outcome of this test.
Return: -1

Enquiry: GET /call?item= CCOP(=S)(OCC)SCSC(C)(C)C returns the recorded outcome of this test.
Return: -1

Data provenance: PubChem BioAssay (EPA / NIEHS)
